- experimental-system: T1, Rat
- T1 construct: also called rat EphA4 extracellular domain-SEAP-His protein
- assay-info: ELISA
Exercise: for every item that follows, state its recorded absorbance.
In your answer, state the number alone without any accompanying words.

Task: Report absorbance for KPEP11_04 (antibody, V domains shown, Rabbit IgG/kappa; Used HRP-labeled as detection antibody in the sandwich ELISAs; also called anti-human EphA4 rabbit monoclonal antibody KPEP11_04; HRP-labeled KPEP11_04) VH: QEQLKESGGRLVTPGGSLTLTCTVSGIDLSSYAMSWVRQAPEKGLEWIGFINMYGTYYASWAKGRFTISRTSTTVDLKVTSLTTEDTATYFCVRGGRSPDYDIVSGDIWGPGTLVTVSS VL: YVMMTQTPSSVSEPVGGTVTIKCQASQNIYNSLAWYQQKPGQRPKLLIADASELASGVPQRFSGSGSGTQFTLTISDLECADAATYYCQSSSAGDSYVGGFGGGTEVVVKG please.
Output: 0.044

Task: Entry KPEP11_20 (antibody, V domains shown, Rabbit IgG; also called anti-human EphA4 rabbit monoclonal antibody KPEP11_20) VH: QSLEESGGRLVTPGTPLTLTCTVSGFSLNNYYMNWVRQAPGKGLEWIGIIYPDIDTTDYASWVKGRFTISKTSTTVDLKITSPTTEDTATYFCARSDIDYYTTRLDLWGQGTLVTISS VL: AQVLTQTPSPVSAAVGGTVSINCQSSPSVYNNNWLSWFQQKPGQPPKLLIYGASTLASGVPSRFKGSGSGTQFTLTISDVQCDDAATYYCAGGYDSNSDTAFGGGTELEILG has what absorbance?
Output: 0.062
